- Test system: MOLM14 cells
- test.description: Proliferation assay, spheroid-like growth, MOLM14 (MLL-AF9 rearranged)
- Type: cell-based, human
- conditions: Homo sapiens, MOLM-14, 192 h, 8 days, confluence as measure of spheroid size, read-out: spheroid assay_OneTime MOLM14 IC50
outcome.measure: IC50 (nM)
Quick note: give the figure in nM, leave out the unit.

**Q:** # query: IC50 of entry CC(C)[C@@H]([C@H]1C[C@@H](N2CCC[C@@H](O)C2)C1)N1CC2(CCN(c3ncnnc3Oc3ccc(F)cc3-c3cccnc3C3CC3)C2)C1 (single isomer, unassigned)
**A:** 3

---

Each item that follows carries a reported IC50.
- target.desc: menin/MLL (terbium chelate-labeled menin, FITC-MBM1 peptide) (Homo sapiens, UniProt O00255, T541A)
- Construct: Menin (a.a 1-610-6xhis tag)
- Sequence (O00255 with tags, fused parts or gaps T541A): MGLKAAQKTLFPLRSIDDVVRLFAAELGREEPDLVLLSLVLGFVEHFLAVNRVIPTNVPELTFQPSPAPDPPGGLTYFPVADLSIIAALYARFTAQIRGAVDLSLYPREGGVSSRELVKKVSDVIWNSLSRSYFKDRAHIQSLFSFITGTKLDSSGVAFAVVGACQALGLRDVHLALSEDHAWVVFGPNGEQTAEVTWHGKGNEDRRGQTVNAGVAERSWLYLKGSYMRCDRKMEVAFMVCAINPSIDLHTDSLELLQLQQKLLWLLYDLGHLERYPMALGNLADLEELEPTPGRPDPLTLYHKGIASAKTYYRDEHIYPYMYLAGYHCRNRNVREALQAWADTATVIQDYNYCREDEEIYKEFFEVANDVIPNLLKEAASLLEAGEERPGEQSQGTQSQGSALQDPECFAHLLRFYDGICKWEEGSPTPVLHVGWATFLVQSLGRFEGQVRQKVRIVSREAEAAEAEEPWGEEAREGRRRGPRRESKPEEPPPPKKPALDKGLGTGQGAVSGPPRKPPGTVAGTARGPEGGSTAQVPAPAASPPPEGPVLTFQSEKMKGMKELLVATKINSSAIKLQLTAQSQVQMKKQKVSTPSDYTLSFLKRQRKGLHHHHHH
- test.description: Menin/MLL homogenous time-resolved fluorescence (HTRF) assay
- Type: binding
- conditions: 30 min incubation
- Method: 1) Menin/MLL Homogenous Time-Resolved Fluorescence (HTRF) Assay […] Compound potencies were determined by first calculating % inhibition at each compound concentration according to equation 1: […] Where LC and HC are the HTRF values of the assay in the presence or absence of a saturating concentration of a compound that competes with FITC-MBM1 for binding to menin, and HTRF^compound is the measured HTRF value in the presence of the test compound. […]
# output: bare number, implied unit pM

CC(=O)N[C@H]1C[C@@H](C(C(C)C)N2CC3(CCN(c4ncnnc4Oc4ccc(F)cc4-c4nccnc4C4CC4)C3)C2)C1 (stereo partly drawn)	500

**Q:** I am curious: what IC50 value has been reported for CC(C)[C@H]([C@H]1C[C@@H](NC(=O)CCN(C)C)C1)N1CC2(CCN(c3ncnnc3Oc3ccc(F)cc3-c3cncnc3C3CC3)C2)C1 (single isomer, unassigned) ?
**A:** 100

**Q:** Same thing, different compound: CC(C)[C@@H]([C@H]1C[C@@H](NC2CCOCC2)C1)N1CC2(CCN(c3ncnnc3Oc3ccc(F)cc3-c3cncnc3C3CC3)C2)C1 (single isomer, unassigned)
**A:** 800

---

Entries and their measured IC50 follow.
- Tested on: KO-52 cells
- test.description: Proliferation assay, spheroid-like growth, KO-52 (MLL wildtype control cell line)
- Assay type: cell-based, human
- conditions: Homo sapiens, 192 h, KO-52 control cells, 8 days, confluence as measure of spheroid size; read-out: spheroid assay_OneTime KO-52 IC50
Field: numeric (µM). Do not append units.

Example entries begin here.
CC(C)[C@@H]([C@H]1C[C@@H](N2CC3(CCO3)C2)C1)N1CC2(CCN(c3ncnnc3Oc3ccc(F)cc3-c3cnncc3C3CC3)C2)C1 (single isomer, unassigned)	8.47
CC(C)[C@H]([C@H]1C[C@@H](N2CCC(S(C)(=O)=O)CC2)C1)N1CC2(CCN(c3ncnnc3Oc3ccc(F)cc3-c3ncccc3C3CC3)C2)C1 (single isomer, unassigned)	5.57
CC(C)[C@@H]([C@H]1C[C@H](N2CC3(CCO3)C2)C1)N1CC2(CCN(c3ncnnc3Oc3ccc(F)cc3-c3cnncc3C3CC3)C2)C1 (single isomer, unassigned)	12.2

**Q:** Please tell me: IC50 of CC(C)[C@H]([C@H]1C[C@@H](N2CC[C@@H](C(C)(C)O)C2)C1)N1CC2(CCN(c3ncnnc3Oc3ccc(F)cc3-c3cncnc3C3CC3)C2)C1 (single isomer, unassigned) , system KO-52 cells?
**A:** 5.15

---

- Tested on: MOLM14 cells
- test.description: Proliferation assay, spheroid-like growth, MOLM14 (MLL-AF9 rearranged)
- Assay type: cell-based, human
- conditions: Homo sapiens, MOLM-14, 192 h, 8 days, confluence as measure of spheroid size, read-out: spheroid assay_OneTime MOLM14 IC50
The reader will find reported IC50 values listed item by item below.
Report as a plain number; the unit nM is understood.

**Q:** Quick one: IC50 of CC(C)[C@H]([C@H]1C[C@@H](N2CC3(CCO3)C2)C1)N1CC2(CCN(c3ncnnc3Oc3ccc(F)cc3-c3cncnc3C3CC3)C2)C1 (single isomer, unassigned) [Compound 145] ?
**A:** 6

**Q:** And what about the compound CC(C)[C@H]([C@H]1C[C@@H](NC(=O)CC2COC2)C1)N1CC2(CCN(c3ncnnc3Oc3ccc(F)cc3-c3cncnc3C3CC3)C2)C1 (single isomer, unassigned) [Compound 296] ?
**A:** 10

**Q:** Follow-up item: CC(=O)N1CC2(C1)CN([C@H]1C[C@@H]([C@H](C(C)C)N3CC4(CCN(c5ncnnc5Oc5ccc(F)cc5-c5ncc(C)cc5C5CC5)C4)C3)C1)C2 (single isomer, unassigned) [Compound 373]
**A:** 7.6

---

- Tested on: MOLM14 cells
- test.description: Proliferation assay, spheroid-like growth, MOLM14 (MLL-AF9 rearranged)
- Assay type: cell-based, human
- conditions: Homo sapiens, MOLM-14, 192 h, 8 days, confluence as measure of spheroid size, read-out: spheroid assay_OneTime MOLM14 IC50
pIC50: −log10 of the molar value.
Outcome: met for pIC50 of at least 8; not met for anything lower.

The examples below pair each entry with its known result.
Cc1ncc(-c2cc(F)ccc2Oc2nncnc2N2CCC3(C2)CN([C@@H](C(C)C)[C@H]2C[C@@H](N4CCC5(CN(C(=O)C6CC6)C5)C4)C2)C3)c(C2CC2)n1	met
CC(=O)N1CCN([C@H]2C[C@@H]([C@H](C(C)C)N3CC4(CCN(c5ncnnc5Oc5ccc(F)cc5-c5cccnc5C5CC5)C4)C3)C2)CC1 (single isomer, unassigned)	not met
CC(C)C(C1CC2(CCN2)C1)N1CC2(CCN(c3ncnnc3Oc3ccc(F)cc3-c3cncnc3C3CC3)C2)C1 (centres unmarked)	not met

**Q:** Say whether CC(C)[C@H]([C@H]1C[C@@H](N2CC[C@H](S(C)(=O)=O)C2)C1)N1CC2(CCN(c3ncnnc3Oc3ccc(F)cc3-c3ncccc3C3CC3)C2)C1 (single isomer, unassigned) shows pIC50 of 8 or more.
**A:** not met

**Q:** And what about the compound CC(=O)N1CC2(CCN([C@H]3C[C@@H]([C@@H](C(C)C)N4CC5(CCN(c6ncnnc6Oc6ccc(F)cc6-c6cncnc6C6CC6)C5)C4)C3)C2)C1 (single isomer, unassigned) ?
**A:** met

---

compounds and their reported IC50
- Tested on: KO-52 cells
- test.description: Proliferation assay, spheroid-like growth, KO-52 (MLL wildtype control cell line)
- Assay type: cell-based, human
- conditions: Homo sapiens, 192 h, KO-52 control cells, 8 days, confluence as measure of spheroid size; read-out: spheroid assay_OneTime KO-52 IC50
Number in µM, nothing else.

CC(=O)Nc1nccc(N[C@H]2C[C@@H]([C@@H](C(C)C)N3CC4(CCN(c5ncnnc5Oc5ccc(F)cc5-c5cncnc5C5CC5)C4)C3)C2)n1 (single isomer, unassigned)	7.57
CC(C)[C@H]([C@H]1C[C@@H](NC2CCOCC2)C1)N1CC2(CCN(c3ncnnc3Oc3ccc(F)cc3-c3cncnc3C3CC3)C2)C1 (single isomer, unassigned)	4.37
CC(C)[C@H]([C@H]1C[C@@H](N(C)CCC(=O)N(C)C)C1)N1CC2(CCN(c3ncnnc3Oc3ccc(F)cc3-c3cncnc3C3CC3)C2)C1 (single isomer, unassigned)	10.2
CC(C)[C@H]([C@H]1C[C@@H](N2C[C@H]3C[C@@H]2CO3)C1)N1CC2(CCN(c3ncnnc3Oc3ccc(F)cc3-c3cncnc3C3CC3)C2)C1 (single isomer, unassigned)	6.28
COC1CN([C@H]2C[C@H]([C@@H](C(C)C)N3CC4(CCN(c5ncnnc5Oc5ccc(F)cc5-c5cncnc5C5CC5)C4)C3)C2)CC1OC (single isomer, unassigned)	7.9

Turning now to a further compound:
**Q:** Request body: readout IC50, system KO-52 cells, query CCOC(=O)c1cnc(N[C@H]2C[C@@H](C(C(C)C)N3CC4(CCN(c5ncnnc5Oc5ccc(F)cc5-c5cncnc5C5CC5)C4)C3)C2)o1 (single isomer, unassigned) . Return the value.
**A:** 1.25

---

- Tested on: KO-52 cells
- test.description: Proliferation assay, spheroid-like growth, KO-52 (MLL wildtype control cell line)
- Format: cell-based, human
- conditions: Homo sapiens, 192 h, KO-52 control cells, 8 days, confluence as measure of spheroid size; read-out: spheroid assay_OneTime KO-52 IC50
pIC50: −log10 of the molar value.
The threshold is inclusive: pIC50 of exactly 5 counts as 1; values below receive 0.

Worked set:
CC(C)[C@H]([C@H]1C[C@]2(COC(=O)N2)C1)N1CC2(CCN(c3ncnnc3Oc3ccc(F)cc3-c3ncccc3C3CC3)C2)C1 (single isomer, unassigned) [Compound 321]	0
CC(C)[C@@H]([C@H]1C[C@@H](N2CC[C@@H](S(C)(=O)=O)C2)C1)N1CC2(CCN(c3ncnnc3Oc3ccc(F)cc3-c3ncccc3C3CC3)C2)C1 (single isomer, unassigned) [Compound 287]	0
CC(C)[C@H]([C@H]1C[C@H](N2CCC[C@H](C(=O)N(C)C)C2)C1)N1CC2(CCN(c3ncnnc3Oc3ccc(F)cc3-c3cncnc3C3CC3)C2)C1 (single isomer, unassigned) [Compound 52]	0
CC(C)[C@H]([C@H]1C[C@@H](NC(=O)C2CC2)C1)N1CC2(CCN(c3ncnnc3Oc3ccc(F)cc3-c3cnncc3C3CC3)C2)C1 (single isomer, unassigned) [Compound 185]	1
CC(C)[C@H]([C@H]1C[C@@H](N2CCC(C)(C(=O)N(C)C)C2)C1)N1CC2(CCN(c3ncnnc3Oc3ccc(F)cc3-c3cncnc3C3CC3)C2)C1 (stereo partly drawn) [Compound 161]	1

**Q:** Hello, I need to know if CO[C@H]1[C@@H]2CN([C@H]3C[C@@H]([C@@H](C(C)C)N4CC5(CCN(c6ncnnc6Oc6ccc(F)cc6-c6cncnc6C6CC6)C5)C4)C3)C[C@@H]21 (single isomer, unassigned) [Compound 233] has measured pIC50 not below 5. Thanks!
**A:** 1

**Q:** CC(C)[C@H]([C@H]1C[C@@H](N2C[C@H](O)C3(CC3)C2)C1)N1CC2(CCN(c3ncnnc3Oc3ccc(F)cc3-c3cncnc3C3CC3)C2)C1 (single isomer, unassigned) [Compound 45] ?
**A:** 1

**Q:** Let us now turn to CC(C)C([C@H]1C[C@@H](N2C[C@H]3COC[C@H]3C2)C1)N1CC2(CCN(c3ncnnc3Oc3ccc(F)cc3-c3cncc(C#N)c3C3CC3)C2)C1 (stereo partly drawn) [Compound 142]
**A:** 1
